test.summary: Half-life period at a substrate concentration of 218 uM was determined
Assay type: ADME
Residues, ends and D or L forms follow the SMILES beside them.
assay.endpoint: half-life at 218 µM (min)
Supply the numeric figure in min, leaving out any unit text.

**Query** // lookup half-life at 218 µM for N[C@@H](Cc1ccccc1)C(=O)N[C@@H](Cc1ccccc1)C(=O)N[C@@H](Cc1ccccc1)C(=O)O (H-Phe-Phe-Phe-OH)
**Result** 37.5

###

This listing pairs compounds with measured Activity.
Test system: Proteinase K (Tritirachium album)
test.summary: Amount of proteinase K required to release folin positive amino acids at a substrate concentration of 304 uM
Residues, ends and D or L forms follow the SMILES beside them.
Supply the numeric figure in mAU ml-1, leaving out any unit text.

Consider the reported Activity for these compounds:
N[C@@H](Cc1ccccc1)C(=O)N=[S+]([O-])(CC(=O)N[C@@H](Cc1ccccc1)C(=O)O)c1ccccc1 (some centres undefined) = 3
N[C@@H](Cc1ccccc1)C(=O)N[C@@H](Cc1ccccc1)C(=O)N[C@@H](Cc1ccccc1)C(=O)O (H-Phe-Phe-Phe-OH) = 1.5
N=[S+]([O-])(CC(=O)N[C@@H](Cc1ccccc1)C(=O)O)c1ccccc1 (some centres undefined) = 300

**Query** // lookup Activity for N[C@H](Cc1ccccc1)C(=O)N=[S+]([O-])(CC(=O)N[C@H](Cc1ccccc1)C(=O)O)c1ccccc1 (some centres undefined)
**Result** 30
